- Assay System: natural β-amyloid peptide β-AP1-40 (human)
- Sequence (peptide, as listed by the source): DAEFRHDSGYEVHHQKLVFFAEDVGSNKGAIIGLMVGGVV
- Experiment Description: cell-based or functional assay
* marks the point of attachment. Cholyl = C[C@H](CCC(=O)*)[C@H]1CC[C@H]2[C@@H]3[C@H](O)C[C@@H]4C[C@H](O)CC[C@]4(C)[C@H]3C[C@H](O)[C@]12C; Deoxycholoyl = C[C@H](CCC(=O)*)[C@H]1CC[C@H]2[C@@H]3CC[C@@H]4C[C@H](O)CC[C@]4(C)[C@H]3C[C@H](O)[C@]12C; Lithocholoyl = C[C@H](CCC(=O)*)[C@H]1CC[C@H]2[C@@H]3CC[C@@H]4C[C@H](O)CC[C@]4(C)[C@H]3CC[C@]12C
Result Type: % Iext'n; seeded extension assay; 25 mole % (%)
Write it as a number; the unit % goes unstated.

Challenge: Query (binder): Deoxycholoyl-LVFFA-OH [DeoxyCA-LVFFA-oh] ; field requested: % Iext'n; seeded extension assay; 25 mole %
Response given: 82

Challenge: Return reported % Iext'n; seeded extension assay; 25 mole %; argument: Cholyl-VFFA-OH (SMILES CC(C)[C@H](NC(=O)CC[C@@H](C)[C@H]1CC[C@H]2[C@@H]3[C@H](O)C[C@@H]4C[C@H](O)CC[C@]4(C)[C@H]3C[C@H](O)[C@]12C)C(=O)N[C@@H](Cc1ccccc1)C(=O)N[C@@H](Cc1ccccc1)C(=O)N[C@@H](C)C(=O)O) [CA-VFFA-oh]
Response given: 10

Challenge: # input binder: Lithocholoyl-LVFFA-OH [LithoCA-LVFFA-oh] ; wanted: its % Iext'n; seeded extension assay; 25 mole %
Response given: 0

Challenge: Sample Cholyl-LAFFA-OH (SMILES CC(C)C[C@H](NC(=O)CC[C@@H](C)[C@H]1CC[C@H]2[C@@H]3[C@H](O)C[C@@H]4C[C@H](O)CC[C@]4(C)[C@H]3C[C@H](O)[C@]12C)C(=O)N[C@@H](C)C(=O)N[C@@H](Cc1ccccc1)C(=O)N[C@@H](Cc1ccccc1)C(=O)N[C@@H](C)C(=O)O) [CA-LAFFA-oh] — what was its % Iext'n; seeded extension assay; 25 mole %?
Response given: 66
